# EXPERIMENTAL_PROTOCOL: BSK_SAg_Proliferation: Cell Proliferation Assessment in the BioMAP Diversity Plus: SAg Assay (AID 2283095);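 also: relative cell number as total protein by SRB absorbance in sub-confluent culture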
# TEST_PARAMETERS: primary human HUVEC with PBMC
The source made the active and inactive calls. The calls were made as follows: active = hit-call score of the fitted dose curve at least 0.9, where 1 is the maximum; inactive = score below 0.9.
MEASUREMENT_NAME: AC50

COMPOUND	AC50
CC(C)c1cccc(C(C)C)c1N1C(=O)c2ccc(O)cc2C1=O	20 µM (active)
CC(C)(O)c1coc(S(=O)(=O)NC(=O)Nc2c3c(cc4c2CCC4)CCC3)c1	inactive
CCCCCCCCCCCCc1ccccc1	inactive
CC(C)CCCCCCCOC(=O)CCCCC(=O)OCCCCCCCC(C)C	inactive
O=C(CCCCCCCCc1cccnc1)N1CCC(C=C(c2ccccc2)c2ccccc2)CC1	6.21 µM (active)

Lab note: each compound below needs its AC50 filled in.
1. CC(C)=CCC/C(C)=C\CO
2. Clc1nc(Cl)c(Cl)c(Cl)c1Cl
3. O=C(O)CCN(C1(C(=O)NO)CCCC1)S(=O)(=O)c1ccc(Oc2ccc(F)cc2)cc1
4. CNS(=O)(=O)c1cc(C(=O)N2CCC(CCN3C4CCC3CC(n3c(C)nc5ccccc53)C4)(c3cccc(F)c3)CC2)c(Cl)cc1F (stereo not given)
5. O=C(OC[C@H]1O[C@@H](OC(=O)c2cc(O)c(O)c(OC(=O)c3cc(O)c(O)c(O)c3)c2)[C@H](OC(=O)c2cc(O)c(O)c(OC(=O)c3cc(O)c(O)c(O)c3)c2)[C@@H](OC(=O)c2cc(O)c(O)c(OC(=O)c3cc(O)c(O)c(O)c3)c2)[C@@H]1OC(=O)c1cc(O)c(O)c(OC(=O)c2cc(O)c(O)c(O)c2)c1)c1cc(O)c(O)c(OC(=O)c2cc(O)c(O)c(O)c2)c1

A.
1. inactive
2. 23.3 µM (active)
3. inactive
4. 10.4 µM (active)
5. 6.18 µM (active)

* * *

# TARGET_OR_SYSTEM: Cellular tumor antigen p53 (Homo sapiens) (UniProt P04637)
# Sequence (P04637 whole entry, looked up): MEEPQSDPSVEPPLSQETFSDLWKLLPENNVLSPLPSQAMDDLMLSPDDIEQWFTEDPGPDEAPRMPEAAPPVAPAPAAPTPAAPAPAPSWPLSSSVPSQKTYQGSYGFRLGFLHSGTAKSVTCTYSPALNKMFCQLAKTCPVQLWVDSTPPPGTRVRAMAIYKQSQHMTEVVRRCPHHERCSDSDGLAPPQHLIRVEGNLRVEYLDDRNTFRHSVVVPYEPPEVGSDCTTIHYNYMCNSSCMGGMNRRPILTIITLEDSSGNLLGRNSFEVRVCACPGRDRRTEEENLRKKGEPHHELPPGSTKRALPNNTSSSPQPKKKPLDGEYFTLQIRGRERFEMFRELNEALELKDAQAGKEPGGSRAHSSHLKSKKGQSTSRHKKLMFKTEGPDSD
# EXPERIMENTAL_PROTOCOL: ATG_p53_CIS: Attagene CIS-FACTORIAL HepG2 Assay for human p53 Transcription Factor (AID 2282994)
# TEST_PARAMETERS: HepG2 p53 cis-element reporter, Attagene mRNA; actives raise or lower the signal
Calls of active or inactive are those of the source. Rule for the calls: active = hit-call score of the fitted dose curve at least 0.9, where 1 is the maximum; inactive = score below 0.9.
Respond only with the outcome that fits, drawn from label 1 = active, label 0 = inactive

// known answers, use as guide
COMPOUND	ANSWER_LABEL
O=C(O)c1cc(N=Nc2ccc(S(=O)(=O)Nc3ccccn3)cc2)ccc1O	label 0
CCC(C)(C)C(=O)O[C@H]1C[C@@H](C)C=C2C=C[C@H](C)[C@H](CC[C@@H]3C[C@@H](O)CC(=O)O3)[C@H]21	label 0
Oc1ccc2c(c1)-c1ccccc1C2	label 0
CCCN(C1CCN(C(=O)C2CCNCC2)CC1)[C@@H]1CCc2ccc(OC)cc2C1	label 1

Q. Outcome? O=c1[nH]c2ccc(S(=O)CCN3CCC(Cc4ccc(F)cc4)CC3)cc2o1 (stereo unspecified)
A. label 0

Q. Another compound to check: "CN(C)c1ccc(N=NS(=O)(=O)O)cc1"
A. label 0

Q. Another compound to check: "CCN(C(=O)c1cc(C)cc(OC[C@H](C)Nc2ccncc2)c1)C(C)C"
A. label 0

Where do the numbers come from? From PubChem BioAssay (EPA / NIEHS).
